Kindly state TGI for each of the entries shown.
System: ACHN renal
Assay: NCI tumour cell line growth inhibition, 48 h

// field: TGI; key: `CC(C)[O-].CC(C)[O-].[O-]c1cccc2cccnc12.[O-]c1cccc2cccnc12.[Ti+4]` ; value = > 100 µM

// field: TGI; key: `COc1ccc2[nH]c3c(C)c4cnccc4c(C)c3c2c1` ; value = > 10 µM

// field: TGI; key: `CN(NC(=O)c1cccs1)C1=NCCN1` ; value = > 100 µM

// field: TGI; key: COC(=O)C(=O)C1CCCCC(C2=NC3NN=C(N)N3C2=O)C1=O (stereo unspecified) ; value = > 100 µM

// field: TGI; key: `C1=c2ccccc2=C2C(=C(c3ccccc3)C(c3ccccc3)=NN2c2ccccc2)S1` ; value = > 100 µM

// field: TGI; key: `Cc1sc(/N=C2/NC(=O)CS2)nc1-c1nc(/N=C2/NC(=O)CS2)sc1C` ; value = > 50 µM

====

Test system: U251 CNS
Assay: NCI tumour cell line growth inhibition, 48 h
Kindly state TGI for each of the entries shown.

// field: TGI; key: `Nc1cnc2c(c1)c(=O)nc1n2CCS1` ; value = > 100 µM

// field: TGI; key: N#CC(c1ccccc1)N(CCc1ccccc1)C(=O)Oc1ccccc1 (configuration not stated) ; value = > 100 µM

// field: TGI; key: `COc1ccc2[nH]c3c(C)c4cnccc4c(C)c3c2c1` ; value = 3.24 µM

// field: TGI; key: COC(=O)C(=O)C1CCCCC(C2=NC3NN=C(N)N3C2=O)C1=O (configuration not stated) ; value = > 100 µM

// field: TGI; key: CC1=NN(c2ccccc2)C(=O)C1N=Nc1ccc(Br)c(C)c1 (configuration not stated) ; value = > 100 µM

// field: TGI; key: CCOC(=O)C1(Cc2ccc3ccccc3c2)CCCCCN1 (configuration not stated) ; value = > 100 µM

// field: TGI; key: `CC1(C)O[C@@H](CP(c2ccccc2)c2ccccc2)[C@H](CP(c2ccccc2)c2ccccc2)O1` ; value = 20.2 µM

====

Test system: SF-295 CNS
Experiment: NCI tumour cell line growth inhibition, 48 h
Metric: TGI

// field: TGI; key: `CC1(C)S[C@@H]2[C@H](NC(=O)/C=C/c3ccccc3)C(=O)N2[C@H]1C(=O)O` ; value = > 100 µM

// field: TGI; key: `Cc1onc(-c2c(F)cccc2Cl)c1C(=O)N[C@@H]1C(=O)N2[C@@H]1SC(C)(C)[C@@H]2C(=O)O` ; value = > 100 µM

// field: TGI; key: O=C(CC1(O)C(=O)Nc2c(Cl)ccc(Cl)c21)c1ccc(C2CC2)cc1 (stereo not drawn) ; value = 4.32 µM

// field: TGI; key: `C1=c2ccccc2=C2C(=C(c3ccccc3)C(c3ccccc3)=NN2c2ccccc2)S1` ; value = > 100 µM

// field: TGI; key: CCOc1cc(NC(C)=O)ccc1C(=O)NN1C(=O)CSC1c1ccc(O)c(OC)c1 (stereo not drawn) ; value = > 100 µM

// field: TGI; key: CC12C(=O)N(CCN)C(=O)C1C1c3ccccc3C2c2ccccc21 (stereo not drawn) ; value = > 100 µM

// field: TGI; key: `Cn1c(N)c(-c2c3ccccc3nc3ccccc23)c(=O)n(C)c1=O` ; value = > 100 µM

// field: TGI; key: CCOC(=O)C1(Cc2ccc3ccccc3c2)CCCCCN1 (stereo not drawn) ; value = 39 µM

// field: TGI; key: COc1cc2c3c(c1O)C1(C=CC(=O)C=C1)CC3N(C)CC2 (stereo not drawn) ; value = 24.3 µM

// field: TGI; key: C=C1C(=O)OC2CC3(C)OC3C3OC3C3=CC(OC3=O)C12 (stereo not drawn) ; value = > 100 µM

// field: TGI; key: `FC(F)(F)C1=NC(=NNc2nnc(-c3ccccc3)c(-c3ccccc3)n2)N=C(C(F)(F)F)C1` ; value = > 100 µM

// field: TGI; key: OC1C2C=CCC1CCC2 (stereo not drawn) ; value = > 100 µM

// field: TGI; key: `O=C(/C=C/c1cccc(B(O)O)c1)c1cccc(B(O)O)c1` ; value = 15.6 µM

// field: TGI; key: `O=C(CCO)OCCCCCC/C=C\CCCCCC/C=C\CCCCCCCCOC(=O)CCO` ; value = 35.5 µM

// field: TGI; key: CCOC(=O)CCC(NC(=O)c1ccc(Oc2nc3ccccc3nc2C(=O)OCC)cc1)C(=O)OCC (stereo not drawn) ; value = > 100 µM

// field: TGI; key: `O=[N+]([O-])c1cc(/C=N/NS(=O)(=O)c2ccc(F)cc2)c(O)c([N+](=O)[O-])c1` ; value = > 100 µM

// field: TGI; key: `O=C1/C(=C\c2c(-c3ccccc3)nn(-c3ccccc3)c2O)C(c2ccccc2)=NN1c1ccccc1` ; value = > 100 µM

// field: TGI; key: `CC(C)(C)C[P+](C)(C)c1ccccc1` ; value = > 100 µM

// field: TGI; key: COC(=O)CNC(=O)Nc1cc(N2C(=O)ON3C2C(C)(C)N(O)C3(C)C)ccc1C (stereo not drawn) ; value = > 100 µM

// field: TGI; key: `COc1cc(NCc2ccc3n2-c2ccccc2OC3)cc(OC)c1OC` ; value = 63.9 µM

// field: TGI; key: CCCC(=O)OCC(O)CO (stereo not drawn) ; value = > 5000 µM

// field: TGI; key: Nc1ccc(C(=O)NN2C(=O)C(Cl)C2c2cccc([N+](=O)[O-])c2)cc1 (stereo not drawn) ; value = 43.1 µM

// field: TGI; key: `c1ccc2c3nnc(c2c1)SCCSCCCSCCS3` ; value = > 100 µM

====

Kindly state TGI for each of the entries shown.
Tested on: NCI-H23 lung
Assay: NCI tumour cell line growth inhibition, 48 h

// field: TGI; key: Cc1cc(=O)oc2c(CNC(C(=O)O)C(C)O)c(O)ccc12 (centres undefined) ; value = > 100 µM

// field: TGI; key: CCOc1cc(NC(C)=O)ccc1C(=O)NN1C(=O)CSC1c1ccc(O)c(OC)c1 (centres undefined) ; value = > 100 µM

// field: TGI; key: `N#CC(c1ccccc1)(c1ccccc1)[C@@H](c1ccccc1)[C@H](Cc1ccccc1)NS(=O)(=O)c1ccccc1` ; value = > 100 µM

// field: TGI; key: `NC1=NS(=O)(=O)Nc2nc(-c3cccs3)[nH]c21` ; value = > 100 µM

// field: TGI; key: `O=C(NO)c1cnc(N2CCN(S(=O)(=O)c3ccc4ccccc4c3)CC2)nc1` ; value = 0.897 µM

// field: TGI; key: `N#CC[C@H](C1CCCC1)n1cc(-c2ncnc3[nH]ccc23)cn1` ; value = 75.7 µM

// field: TGI; key: COc1ccc(C2C3=C(COC3=O)N(CCO)c3cc4c(cc32)OCCO4)cc1OC (centres undefined) ; value = > 50 µM

// field: TGI; key: `CCOc1ccc(NC(=O)CCC(=O)NN)cc1` ; value = > 100 µM

// field: TGI; key: `CC[C@H](C)[C@H](NC(=O)C12CC(NC(C)=O)(C1)C2)C(=O)N(C)[C@H](C[C@@H](OC(C)=O)c1nc(C(=O)N[C@@H](Cc2ccccc2)C[C@H](C)C(=O)OC)cs1)C(C)C` ; value = > 16.7 µM

====

Test system: NCI-H522 lung
Assay: NCI tumour cell line growth inhibition, 48 h
Metric: log10 TGI (log10 of the value in µM)
Plainly stated, the numbers are log10 of TGI given in µM.

// field: log10 TGI; key: O=C(Nc1cc(Cl)c(Cl)cc1Cl)C(=O)C(C(=O)c1ccc2ccccc2c1)C1OC(=O)c2ccccc21 (centres undefined) ; value = 1.43

// field: log10 TGI; key: Cc1cc(-c2nc3cc(F)ccc3s2)ccc1NC(=O)C(C)N (centres undefined) ; value = 0.90

// field: log10 TGI; key: `ClC1=C(Cl)C(Cl)=C(Cl)C1=Cc1ccc(Cl)cc1` ; value = -0.18

// field: log10 TGI; key: CSc1ccc(C2=NN(C(=O)c3ccc(N)cc3)C(c3ccc(F)cc3)C2)cc1 (centres undefined) ; value = 1.49

// field: log10 TGI; key: `CCC[CH2][Sn]1([CH2]CCC)[O]C(=O)c2cc(C)ccc2[O]1` ; value = -0.63

// field: log10 TGI; key: `C[N+]1=c2c3cccc4cccc(c(=O)n2CCC1)c43` ; value = 1.48

====

Test system: MDA-MB-435
Assay: NCI tumour cell line growth inhibition, 48 h
Metric: TGI

// field: TGI; key: `CN(NC(=O)c1cccs1)C1=NCCN1` ; value = > 100 µM

// field: TGI; key: Cc1cc(C)c2c(c1)C(=O)C1(C2)Cc2c(ccc(C)c2C)C1=O (stereo not given) ; value = > 100 µM

// field: TGI; key: `O=C(NNC(=O)c1ccccc1Cl)c1ccccc1O` ; value = > 100 µM

// field: TGI; key: `N#CC[C@H](C1CCCC1)n1cc(-c2ncnc3[nH]ccc23)cn1` ; value = > 93.2 µM

// field: TGI; key: `C/C(=N\Nc1cccc(Cl)n1)c1ccccn1` ; value = > 100 µM
